Target: T1, IFN-α4a (human, UniProt P05014 24-189)
T1 construct: Recombinant, HEK293; also called IFN-αM1
Test: ProteOn SPR, cell supernatant;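 note: each binding measurement used just a single antigen concentration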
pKd: −log10 of the molar value.
quantity measured: pKd

binder="IFWM3392 (antibody, IgG1, V domains shown, mAb; IgG1/kappa said of the parent and of selected mAbs; also called IFWB3127) VH: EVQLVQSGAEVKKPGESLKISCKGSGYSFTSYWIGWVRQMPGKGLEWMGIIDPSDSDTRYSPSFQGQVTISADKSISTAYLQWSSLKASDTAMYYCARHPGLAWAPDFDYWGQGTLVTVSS VL: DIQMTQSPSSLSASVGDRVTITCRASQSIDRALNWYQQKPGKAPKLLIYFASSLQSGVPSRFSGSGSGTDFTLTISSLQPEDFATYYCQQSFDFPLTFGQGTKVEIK" numeric_readout=10.24
binder="IFWM3414 (antibody, IgG1, V domains shown, mAb; IgG1/kappa said of the parent and of selected mAbs; also called IFWB3149) VH: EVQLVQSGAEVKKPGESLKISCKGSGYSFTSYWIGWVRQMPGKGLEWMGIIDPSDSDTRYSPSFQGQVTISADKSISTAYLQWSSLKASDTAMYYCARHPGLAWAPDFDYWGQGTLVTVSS VL: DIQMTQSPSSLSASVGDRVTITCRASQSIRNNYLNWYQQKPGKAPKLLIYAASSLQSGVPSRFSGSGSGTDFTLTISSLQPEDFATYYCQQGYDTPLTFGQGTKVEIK" numeric_readout=9.71
binder="IFWM3403 (antibody, IgG1, V domains shown, mAb; IgG1/kappa said of the parent and of selected mAbs; also called IFWB3138) VH: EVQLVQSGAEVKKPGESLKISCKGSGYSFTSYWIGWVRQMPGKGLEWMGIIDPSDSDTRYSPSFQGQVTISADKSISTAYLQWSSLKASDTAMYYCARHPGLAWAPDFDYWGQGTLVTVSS VL: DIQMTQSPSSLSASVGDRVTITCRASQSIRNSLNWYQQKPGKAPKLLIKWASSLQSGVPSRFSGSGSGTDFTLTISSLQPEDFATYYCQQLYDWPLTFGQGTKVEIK" numeric_readout=10.21
binder="IFWM3384 (antibody, IgG1, V domains shown, mAb; IgG1/kappa said of the parent and of selected mAbs; also called IFWB3119) VH: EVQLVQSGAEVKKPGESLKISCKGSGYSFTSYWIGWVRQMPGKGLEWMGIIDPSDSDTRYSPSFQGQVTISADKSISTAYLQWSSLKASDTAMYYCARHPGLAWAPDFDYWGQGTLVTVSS VL: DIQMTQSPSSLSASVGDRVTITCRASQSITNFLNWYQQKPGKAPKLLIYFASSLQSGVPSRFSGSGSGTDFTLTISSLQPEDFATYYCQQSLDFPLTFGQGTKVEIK" numeric_readout=10.11
binder="IFWM3390 (antibody, IgG1, V domains shown, mAb; IgG1/kappa said of the parent and of selected mAbs; also called IFWB3125) VH: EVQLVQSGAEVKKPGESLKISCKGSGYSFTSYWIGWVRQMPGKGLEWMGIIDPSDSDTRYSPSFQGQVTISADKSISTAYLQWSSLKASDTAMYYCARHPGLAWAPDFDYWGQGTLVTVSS VL: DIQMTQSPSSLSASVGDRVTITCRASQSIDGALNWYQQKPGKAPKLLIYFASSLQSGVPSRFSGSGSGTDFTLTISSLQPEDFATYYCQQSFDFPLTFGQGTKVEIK" numeric_readout=10.12

Source of measurements: patent US20150368338A1
